- ASSAYED_SYSTEM: Estrogen-related receptor gamma (Homo sapiens) (UniProt P62508)
- EXPERIMENT_DESCRIPTION: Activation of GAL4-DBD-ERRgamma ligand binding domain (unknown origin) expressed in HEK293FT cells at 2 uM incubated for 24 hrs by mammalian two-hybrid reporter gene assay
- Assay type: cell-based
Mark true (1) for reported fold change (FC) of 4 or greater; mark false (0) for anything smaller.

CC(C)c1ccc(Cn2cc(-c3cccc(O)c3)nn2)cc1 ... false (0)
CC(C)c1ccc(/C=N/NC(=O)c2ccc(O)cc2)cc1 ... false (0)
CC(C)c1ccc(Cn2cc(-c3ccc(O)c(O)c3)nn2)cc1 ... true (1)
CC(C)c1cccc(Cn2cc(-c3ccc(O)c(O)c3)nn2)c1 ... false (0)
CC(C)(C)c1ccc(Cn2cc(-c3ccc(O)c(O)c3)nn2)cc1 ... true (1)

Continue with the next molecule.
Quick check, fold change (FC) >= 4? Oc1ccc(-c2cn(Cc3ccc(-c4ccccc4)cc3)nn2)cc1O false (0)

====

- ASSAYED_SYSTEM: Estrogen-related receptor gamma (Homo sapiens, UniProt P62508)
- Sequence (P62508 whole entry): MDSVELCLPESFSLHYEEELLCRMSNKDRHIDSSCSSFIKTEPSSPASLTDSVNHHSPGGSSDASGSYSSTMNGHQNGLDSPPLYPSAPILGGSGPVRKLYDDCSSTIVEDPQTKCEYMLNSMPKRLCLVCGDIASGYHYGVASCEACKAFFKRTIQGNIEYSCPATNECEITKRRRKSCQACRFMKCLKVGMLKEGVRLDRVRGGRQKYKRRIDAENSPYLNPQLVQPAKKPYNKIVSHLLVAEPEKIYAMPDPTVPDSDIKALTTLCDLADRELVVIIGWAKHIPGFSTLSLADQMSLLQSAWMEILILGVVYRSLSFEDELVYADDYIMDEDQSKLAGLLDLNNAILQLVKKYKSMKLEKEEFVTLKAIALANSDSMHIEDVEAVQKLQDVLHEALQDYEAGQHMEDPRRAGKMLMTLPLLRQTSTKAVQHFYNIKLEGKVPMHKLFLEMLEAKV
VALUE_TYPE: Kd

Report Kd for CC(C)c1ccc(Cn2cc(-c3ccc(O)c(O)c3)nn2)cc1 please. 46 µM

====

- ASSAYED_SYSTEM: Estrogen-related receptor gamma (Homo sapiens) (UniProt P62508)
- EXPERIMENT_DESCRIPTION: Activation of GAL4-DBD-ERRgamma ligand binding domain (unknown origin) expressed in HEK293FT cells at 2 uM incubated for 24 hrs by mammalian two-hybrid reporter gene assay
- Assay type: cell-based
Assign fold change (FC) to each entry below.

CC(C)c1ccc(Cn2cc(-c3ccccc3)nn2)cc1 ... 1.31
Cc1ccc(Cn2cc(-c3ccc(O)c(O)c3)nn2)cc1 ... 2.9
CC(C)c1ccccc1Cn1cc(-c2ccc(O)c(O)c2)nn1 ... 2.4
CC(C)c1ccc(Cn2cc(-c3ccc(O)cc3)nn2)cc1 ... 1.69
Oc1ccc(-c2cn(Cc3ccccc3)nn2)cc1O ... 1.43

// moving on: another record for fold change (FC)
Requested field: fold change (FC). Item: CC(C)c1ccc(Cn2cc(-c3ccccc3O)nn2)cc1 1.1
